Reference for the values: patent US7919488B2

- target-desc: CYP3A4 (Homo sapiens)
- Construct: 0.1 mg/mL human liver microsomes; from tissue; host or cells: human liver microsomes
- Sequence (P08684 whole entry): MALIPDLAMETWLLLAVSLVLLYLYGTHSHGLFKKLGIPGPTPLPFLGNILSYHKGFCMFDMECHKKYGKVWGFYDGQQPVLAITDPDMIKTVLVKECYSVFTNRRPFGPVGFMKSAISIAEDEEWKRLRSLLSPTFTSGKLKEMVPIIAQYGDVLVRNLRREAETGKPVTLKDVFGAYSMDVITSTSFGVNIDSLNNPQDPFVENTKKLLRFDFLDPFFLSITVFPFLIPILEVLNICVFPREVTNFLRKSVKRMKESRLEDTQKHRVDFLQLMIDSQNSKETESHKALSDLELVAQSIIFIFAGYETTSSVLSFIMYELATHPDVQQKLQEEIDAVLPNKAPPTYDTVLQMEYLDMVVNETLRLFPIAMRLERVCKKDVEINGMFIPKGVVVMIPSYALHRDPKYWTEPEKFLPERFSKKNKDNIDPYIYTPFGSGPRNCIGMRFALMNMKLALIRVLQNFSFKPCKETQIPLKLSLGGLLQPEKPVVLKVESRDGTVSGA
- assay-explanation: IC50 against CYP3A4 by inhibition of testosterone metabolism in human liver microsomes
- Assay type: biochemical
- condition-parameters: 0.1 mg/mL human liver microsomes, 25 μM testosterone, 1 mM NADPH, 6-β-OH-testosterone production, eight minutes; read-out: IC50, μM (HLM, testosterone)
readout-kind: IC50 (µM)

Below are worked cases with known answers.
[
  {
    "molecule": "NC(=O)c1noc(Cn2nc(-c3ccncc3)cc2Cc2ccc(F)cc2)n1",
    "target-desc": "CYP3A4 (Homo sapiens)",
    "unit-label": "µM",
    "quantitative-readout": 0.0203
  },
  {
    "molecule": "O=C(Cn1nc(-c2ccncc2)cc1Cc1ccc(F)cc1)N1CC(O)C1",
    "target-desc": "CYP3A4 (Homo sapiens)",
    "unit-label": "µM",
    "quantitative-readout": 0.082
  }
]

(P) CCS(=O)(=O)NC1CCN(C(=O)Cn2nc(-c3ccncc3)cc2Cc2ccc(F)cc2)CC1
(Q) O=C(Cn1nc(-c2ccncc2)cc1Cc1ccc(F)cc1)NC1CCS(=O)(=O)C1 (stereo not shown)
Enquiry: Could you point out whether the larger IC50 belongs to P or to Q ? Mark your answer with the label of the selected entry.
Return: P
(P: 0.023 µM, Q: 0.007 µM)
